# TOP per record follows
molecular target: T1, human PD-L1 expressed on CHOK1 cells (PDL1-CHOK1 cell line) (human, UniProt Q9NZQ7 19-290); test: FACS receptor blocking: PDL1-CHOK1 cells, competitor Bio-PD1 (30 µg/ml)
T1 construct: whole, on cells; also called PDL1-CHOK1 cells; PD-L1 expressed on mammalian cells
T1 sequence (Q9NZQ7 19-290): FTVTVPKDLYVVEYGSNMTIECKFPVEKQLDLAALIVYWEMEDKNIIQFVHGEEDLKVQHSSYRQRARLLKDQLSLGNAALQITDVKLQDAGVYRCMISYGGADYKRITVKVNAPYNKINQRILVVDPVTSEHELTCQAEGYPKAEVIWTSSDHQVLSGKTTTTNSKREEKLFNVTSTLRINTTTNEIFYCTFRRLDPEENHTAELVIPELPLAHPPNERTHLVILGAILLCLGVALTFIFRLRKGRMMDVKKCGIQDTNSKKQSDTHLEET
Express your answer in %, writing the number without its unit.

Recorded results for 4 binders are shown here.
binder | observable | reported.value
Hu1210-27 (antibody, V domains shown) VH: EVQLVESGGGLVQPGGSLRLSCAASGFTFSSYDMSWVRQAPGKGLEWVATISDGGGYIYYSDSVKGRFTISRDNAKNSLYLQMNSLRAEDTAVYICAREFGKRYALDYWGQGTLVTVSS VL: DIQMTQSPSSLSASVGDRVTITCKASQDVTPAVAWYQQKPGKAPKLLIYSTSSRYTGVPSRFSGSGSGTDFTLTISSLQPEDFATYYCQQHYTTPLTFGQGTKLEIKR | TOP | 104
Hu1210-3 (antibody, V domains shown, Not the mouse mAb HL1210-3) VH: EVQLVESGGGLVKPGGSLRLSCAASGFTFSSYDMSWVRQAPGKSLEWVATISDGGGYIYYSDSVKGRFTISRDNAKNSLYLQMNSLRAEDTAVYICAREFGKRYALDYWGQGTTVTVSS VL: DIQMTQSPSSLSASVGDRVTITCKASQDVTPAVAWYQQKPGKAPKLLIYSTSSRYTGVPSRFSGSGSGTDFTFTISSLQPEDIATYYCQQHYTTPLTFGQGTKLEIK | TOP | 84.3
H1210 chimera (antibody, V domains shown, also called chimeric antibody) VH: EVKLVESGGDLVKPGGSLKLSCAASGFTFSSYDMSWVRQTPEKSLEWVATISDGGGYIYYSDSVKGRFTISRDNAKNNLYLQMSSLRSEDTALYICAREFGKRYALDYWGQGTSVTVSS VL: DIVMTQSHKFMSTSVGDRVSISCKASQDVTPAVAWYQQKPGQSPKLLIYSTSSRYTGVPDRFTGSGSGTDFTFTISSVQAEDLAVYYCQQHYTTPLTFGAGTKLELK | TOP | 87.2
Hu1210-8 (antibody, V domains shown) VH: EVQLVESGGGLVKPGGSLRLSCAASGFTFSSYDMSWVRQAPGKGLEWVATISDGGGYIYYSDSVKGRFTISRDNAKNSLYLQMNSLRAEDTAVYYCAREFGKRYALDYWGQGTTVTVSS VL: DIQMTQSPSSLSASVGDRVTITCKASQDVTPAVAWYQQKPGKSPKLLIYSTSSRYTGVPSRFSGSGSGTDFTFTISSLQPEDIATYYCQQHYTTPLTFGQGTKLEIK | TOP | 86.3

Please examine the following record next.
Prompt line: # return recorded TOP for input Hu1210-17 (antibody, V domains shown) VH: EVQLVESGGGLVQPGGSLRLSCAASGFTFSSYDMSWVRQAPGKSLEWVATISDGGGYIYYSDSVKGRFTISRDNAKNSLYLQMNSLRDEDTAVYICAREFGKRYALDYWGQGTTVTVSS VL: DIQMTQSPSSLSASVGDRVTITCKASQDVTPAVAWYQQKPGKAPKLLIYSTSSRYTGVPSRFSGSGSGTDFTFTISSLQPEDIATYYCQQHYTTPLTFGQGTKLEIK
Response line: 80.9
